For each of the binders below, state its pKd.
- TGT: T1, human complement C3b protein (human, UniProt P01024 23-667; P01024 749-1663)
- T1 construct: Purified plasma C3b (Complement Technology, Quidel); Depending on the assay it was captured by an anti-C3d antibody, coated, biotinylated or coupled to beads; also called human C3b; huC3b
- PROCEDURE DETAILS: solution equilibrium titration (SET), ECL detection, Fab
Answers are plain numbers, as −log10 of the molar value.

Below, each entry is followed by its recorded pKd result.
| BINDER | pKd |
| --- | --- |
| MOR09136 Fab (Fab, V domains shown, also called Fab 9136) VH: QVQLVQSGAEVKKPGSSVKVSCKASGGTFSSYTFSWVRQAPGQGLEWMGNILPIFGDANYAQKFQGRVTITADESTSTAYMELSSLRSEDTAVYYCARNKGAFYYMSTYPSLDVWGQGTLVTVSS VL: DIQMTQSPSSLSASVGDRVTITCRASQNINYYLNWYQQKPGKAPKLLIYDAFSLQSGVPSRFSGSGSGTDFTLTISSLQPEDFATYYCQQSWSVPPFTFGQGTKVEIKR | 10.02 |
| MOR09398 Fab (Fab, V domains shown, also called Fab 9398) VH: QVQLVESGGGLVQPGGSLRLSCAASGFTFSSYWMTWVRQAPGKGLEWVSSIKIKPDGYAASVKGRFTISRDNSKNTLYLQMNSLRAEDTAVYYCARLFYQYFARMDYWGQGTLVTVSS VL: DIQMTQSPSSLSASVGDRVTITCRASQDISNYLNWYQQKPGKAPKLLIYAASNLQSGVPSRFSGSGSGTDFTLTISSLQPEDFATYYCQQWDSFSPTFGQGTKVEIKR | 11.40 |

Name the reported pKd value associated with the binder MOR09124 Fab (Fab, V domains shown, HCDR2-matured derivative of parental MOR08305) VH: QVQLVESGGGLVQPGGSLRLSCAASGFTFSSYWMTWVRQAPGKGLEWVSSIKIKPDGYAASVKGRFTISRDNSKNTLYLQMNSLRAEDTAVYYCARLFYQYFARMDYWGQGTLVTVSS VL: DIQMTQSPSSLSASVGDRVTITCRASQDISNYLNWYQQKPGKAPKLLIYAASNLQSGVPSRFSGSGSGTDFTLTISSLQPEDFATYYCQQYDSYSPTFGQGTKVEIKR
12.00
